Attribution: patent US20150018427A1

Test system: feline panleukopenia virus (FPV)
Assay: CPE visual scoring assay, FPV in CrFK cells
Format: cell-based
Conditions: Table 1; CPE visual scoring, CrFK cells, 10 TCID50, 4 days; read-out: EC50-value (μM) for FPV
endpoint name: EC50

Ask: I would be grateful if you could share the reported EC50 for NC12CC3CC(C1)CC(O)(C3)C2 .
Result: > 250 µM

====

System: feline panleukopenia virus (FPV)
Assay: CPE visual scoring assay, FPV in CrFK cells
Type: cell-based
Conditions: Feline panleukopenia virus, CRFK, 96 h, Table 1; CPE visual scoring, CrFK cells, 10 TCID50, 4 days; read-out: EC50-value (μM) for FPV
endpoint name: EC50

>>> experimental_result("NCC12CC3CC(CC(C3)C1)C2")
"> 250 µM"
>>> experimental_result("CNC12CC3CC(CC(C3)C1)C2")
"> 250 µM"

Pending compound:
Ask: I would be grateful if you could share the reported EC50 for CC(N)C12CC3CC(CC(C3)C1)C2 (stereo not drawn) .
Result: > 250 µM
